target: Anoctamin-1 (Mus musculus); assay: blockers of mouse ANO1 Ca-activated Cl channel – cell-based, HTS, primary screen (AID 588511); details: HEK293 TMEM16A/YFP iodide influx fluorescence, ionomycin; at 10 µM
About 3,600 (1.2%) of roughly 310,000 compounds were called active.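 How the source made its calls: active means ratio plate-corrected score three or more library SD toward inhibition, starting fluorescence score within five deviations; inactive means the rest.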 The sample holds actives, similar compounds and a random draw of the others, so the mix is not that of the screen.
Classes used: 1 for active, 0 for inactive

{"MOLECULE": "COCCCNC(=O)c1ccc(CNS(=O)(=O)c2ccc(NC(C)=O)cc2)cc1", "ANSWER LABEL": 0}
{"MOLECULE": "Cc1nc2ccccc2cc1OCc1ccc(F)cc1", "ANSWER LABEL": 1}
{"MOLECULE": "O=c1ccc2cc(S(=O)(=O)NCCCc3ccccc3)ccc2[nH]1", "ANSWER LABEL": 0}
{"MOLECULE": "COc1ccccc1-n1cnc2cc(NS(=O)(=O)c3ccccc3)ccc21", "ANSWER LABEL": 0}
{"MOLECULE": "S=C(NCc1ccc(Cl)cc1)NC12CC3CC(CC(C3)C1)C2", "ANSWER LABEL": 1}
{"MOLECULE": "COc1ccc(CCNC(=O)C2CCCN2C(=O)Nc2ccccc2)cc1OC (stereo unspecified)", "ANSWER LABEL": 0}
{"MOLECULE": "O=C(c1cc(COc2ccc(F)c(F)c2)on1)N1CCOCC1", "ANSWER LABEL": 0}
{"MOLECULE": "Cc1occc(=O)c1OCc1ccc(F)cc1", "ANSWER LABEL": 0}
{"MOLECULE": "O=C(NCc1ccncc1)NC12CC3CC(CC(C3)C1)C2", "ANSWER LABEL": 0}
{"MOLECULE": "CCCn1c(C(C)Nc2nc(-c3ccc(C)cc3)cs2)nc2cc(Cl)c(N3CCCCC3)cc21 (stereo unspecified)", "ANSWER LABEL": 0}
{"MOLECULE": "CC(=O)c1cccc(NC(=O)N2CCCC2C(=O)NCCc2ccccc2)c1 (stereo unspecified)", "ANSWER LABEL": 0}

* * *

target: Anoctamin-1 (Mus musculus); experiment: blockers of mouse ANO1 Ca-activated Cl channel – cell-based, HTS, primary screen (AID 588511); details: HEK293 TMEM16A/YFP iodide influx fluorescence, ionomycin; at 10 µM
Among all 310,000 compounds or so, about 3,600 (1.2%) were called active.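 Rule for the calls: active = ratio plate-corrected score three or more library SD toward inhibition, starting fluorescence score within five deviations; inactive = the rest.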 The sample as a whole holds a higher share of actives than the screen did.
Outcomes: active, inactive

{"COMPOUND": "COc1ccc(Nc2ncnc3sc(-c4ccccc4)cc23)c(OC)c1", "SYSTEM UNDER TEST": "Anoctamin-1 (Mus musculus)", "ANSWER LABEL": "inactive"}
{"COMPOUND": "O=C(O)c1ccccc1NC(=O)c1ccccc1-c1ccccc1C(=O)O", "SYSTEM UNDER TEST": "Anoctamin-1 (Mus musculus)", "ANSWER LABEL": "inactive"}
{"COMPOUND": "COc1ccc(CCNC(=O)c2nnc(CS(=O)(=O)c3ccccc3)o2)cc1OC", "SYSTEM UNDER TEST": "Anoctamin-1 (Mus musculus)", "ANSWER LABEL": "inactive"}
{"COMPOUND": "CCC1(C)Cc2c(sc3[nH]c(=S)n(Cc4ccccc4)c(=O)c23)CO1 (stereo unspecified)", "SYSTEM UNDER TEST": "Anoctamin-1 (Mus musculus)", "ANSWER LABEL": "inactive"}
{"COMPOUND": "O=C(NC(=S)Nc1ccccc1C(=O)O)c1ccc(-c2ccc(Br)cc2)o1", "SYSTEM UNDER TEST": "Anoctamin-1 (Mus musculus)", "ANSWER LABEL": "active"}
{"COMPOUND": "Oc1ccccc1N1CCN(c2ncnc3sc(-c4ccccc4)cc23)CC1", "SYSTEM UNDER TEST": "Anoctamin-1 (Mus musculus)", "ANSWER LABEL": "inactive"}
{"COMPOUND": "CCCOc1ccc(Cc2c(Cl)nc(SC)nc2NC)cc1", "SYSTEM UNDER TEST": "Anoctamin-1 (Mus musculus)", "ANSWER LABEL": "active"}
{"COMPOUND": "CC(C)NS(=O)(=O)c1ccc(NC(=O)C2CCCCC2)cc1", "SYSTEM UNDER TEST": "Anoctamin-1 (Mus musculus)", "ANSWER LABEL": "inactive"}
{"COMPOUND": "COc1ccc(CCNC(=O)c2ccccc2OCc2ccccc2)cc1", "SYSTEM UNDER TEST": "Anoctamin-1 (Mus musculus)", "ANSWER LABEL": "inactive"}
{"COMPOUND": "C=C(C)Cn1c(C)cc(C)c(S(=O)(=O)c2ccccc2C)c1=O", "SYSTEM UNDER TEST": "Anoctamin-1 (Mus musculus)", "ANSWER LABEL": "active"}
{"COMPOUND": "COC(=O)c1ccccc1NC(=S)NC(=O)c1ccccc1F", "SYSTEM UNDER TEST": "Anoctamin-1 (Mus musculus)", "ANSWER LABEL": "inactive"}

* * *

target: Anoctamin-1 (Mus musculus); test: blockers of mouse ANO1 Ca-activated Cl channel – cell-based, HTS, primary screen (AID 588511); conditions: HEK293 TMEM16A/YFP iodide influx fluorescence, ionomycin; at 10 µM
Among all 310,000 compounds or so, about 3,600 (1.2%) were called active.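 The calls were made as follows: active = ratio plate-corrected score three or more library SD toward inhibition, starting fluorescence score within five deviations; inactive = the rest.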 The entries come from a sample that favours actives as a whole.
Classes used: 1 (yes) = active, 0 (no) = inactive

{"MOLECULE": "Cc1ccc(S(=O)(=O)N2[C@@H](c3ccccc3F)C(C(=O)O)=CC[C@H]2c2ccc(Cl)cc2)cc1", "ANSWER LABEL": "0 (no)"}
{"MOLECULE": "C=CCNC(=O)C1CC2c3ccccc3C1c1ccccc12 (stereo unspecified)", "ANSWER LABEL": "0 (no)"}
{"MOLECULE": "COC(=O)[C@@H]1C[C@@]2(O)[C@H](O)[C@H](O)[C@H](O)C[C@H]2N1Cc1ccc(C(C)(C)C)cc1", "ANSWER LABEL": "0 (no)"}
{"MOLECULE": "CC(=O)Nc1ccc(S(=O)(=O)Nc2cc(C)cn(Cc3ccc(C)cc3)c2=O)cc1", "ANSWER LABEL": "0 (no)"}
{"MOLECULE": "CC1CN(C(=O)c2ccc3c(c2)OCO3)OC(c2ccccc2)O1 (stereo unspecified)", "ANSWER LABEL": "0 (no)"}
{"MOLECULE": "CCN1CCN(c2cc3nc(C)n(Cc4ccccc4)c(=O)c3cc2NC(=O)c2ccccc2F)CC1", "ANSWER LABEL": "0 (no)"}
{"MOLECULE": "CCN1CCN(C(=O)C2CCN(S(=O)(=O)c3cc(Cl)ccc3Cl)CC2)CC1", "ANSWER LABEL": "0 (no)"}
{"MOLECULE": "CC(C)Cn1cnc2c1c(=O)n(CC(=O)NN)c(=O)n2Cc1ccccc1", "ANSWER LABEL": "0 (no)"}
{"MOLECULE": "Cc1ccc(NC(=O)C(C)c2cccc(C(=O)c3ccccc3)c2)cc1 (stereo unspecified)", "ANSWER LABEL": "1 (yes)"}
{"MOLECULE": "S=C(NCc1cccs1)Nc1ccc(Cl)cc1", "ANSWER LABEL": "1 (yes)"}
{"MOLECULE": "Cc1nn(C)c(Oc2ccccc2)c1CCNS(=O)(=O)c1ccc(F)cc1", "ANSWER LABEL": "0 (no)"}
{"MOLECULE": "COc1cccc(NC(=O)c2ccc(S(=O)(=O)N(C)C)cc2)c1", "ANSWER LABEL": "0 (no)"}
{"MOLECULE": "CCOC(=O)N1CCN(Cc2nc3cc(NC(C)=O)ccc3n2C)CC1", "ANSWER LABEL": "0 (no)"}
{"MOLECULE": "CCNC(=O)c1ccc(OCC(=O)Nc2ccc(F)cc2)c(OC)c1", "ANSWER LABEL": "0 (no)"}
{"MOLECULE": "CC(=O)N1CCc2cc(S(=O)(=O)NC3CCCCC3)ccc21", "ANSWER LABEL": "0 (no)"}
{"MOLECULE": "CCOC(=O)C1CCN(C(=O)C2CCCN(S(=O)(=O)c3ccc(OC)c(Cl)c3)C2)CC1 (stereo unspecified)", "ANSWER LABEL": "0 (no)"}
{"MOLECULE": "O=C(Cc1c(F)cccc1Cl)Nc1ncc([N+](=O)[O-])s1", "ANSWER LABEL": "1 (yes)"}
{"MOLECULE": "COc1ccc(NC(=S)NCc2cccs2)c(OC)c1", "ANSWER LABEL": "0 (no)"}
{"MOLECULE": "Cc1ccc(S(=O)(=O)N2[C@@H](c3cccc(Cl)c3)C(C(=O)O)=CC[C@H]2c2ccc(Cl)c(Cl)c2)cc1", "ANSWER LABEL": "1 (yes)"}
{"MOLECULE": "COC(=O)CCSc1cc([N+](=O)[O-])cc2c1c(C1OCCS1)nn2-c1ccccc1 (stereo unspecified)", "ANSWER LABEL": "0 (no)"}
{"MOLECULE": "CN(CC(=O)NCCc1ccccc1)S(=O)(=O)c1cnc[nH]1", "ANSWER LABEL": "0 (no)"}
{"MOLECULE": "CCc1nc(C)ccc1OCC(=O)N(CC)CC", "ANSWER LABEL": "0 (no)"}
{"MOLECULE": "CCCOn1c(-n2nc(C)cc2C)nc2ccccc2c1=O", "ANSWER LABEL": "0 (no)"}
{"MOLECULE": "O=C(C1CC1)N1CCN=C1SCc1ccc(Cl)cc1", "ANSWER LABEL": "0 (no)"}
{"MOLECULE": "COc1cccc(-c2nnc(NC(=O)c3ccc(S(=O)(=O)N(CC(C)C)CC(C)C)cc3)o2)c1", "ANSWER LABEL": "1 (yes)"}
{"MOLECULE": "CS(=O)(=O)N(CC(=O)N1CCN(c2cccc(Cl)c2)CC1)c1ccccc1", "ANSWER LABEL": "0 (no)"}
{"MOLECULE": "COc1ccc(-c2nn(C)c(=O)c3ccccc23)cc1NC(=O)COc1ccccc1", "ANSWER LABEL": "0 (no)"}
{"MOLECULE": "COc1ccc(C(=O)N2CCCCC2C(=O)Nc2ccc(-n3nc(C)cc3C)cc2)o1 (stereo unspecified)", "ANSWER LABEL": "0 (no)"}
{"MOLECULE": "O=C(CCc1ccccc1)Nc1ncc([N+](=O)[O-])s1", "ANSWER LABEL": "0 (no)"}
{"MOLECULE": "CS(=O)(=O)N(CC(=O)N1CCN(c2ccc(F)cc2)CC1)C1CCCCC1", "ANSWER LABEL": "0 (no)"}
{"MOLECULE": "Cc1ccc(N2CC(C(=O)Nc3ccc(S(=O)(=O)N4CCCC4)cc3)CC2=O)cc1C (stereo unspecified)", "ANSWER LABEL": "0 (no)"}
